Test system: Danio rerio embryo
protocolSummary: BMC10 any morphological effect or mortality at 120 hpf; higher = less toxic
This listing pairs molecules with measured BMC10 any morphological effect or mortality.

Problem: What BMC10 any morphological effect or mortality value was documented for this molecule, [Cl-].c1c2c(cc3c1OCO3)-c1cc3ccc4c(c3c[n+]1CC2)OCO4 [Coptisine] ?
Result: > 100 µM

Problem: What BMC10 any morphological effect or mortality value was documented for this molecule, C[C@H]1[C@H](OC(=O)CCC(=O)O)O[C@@H]2O[C@@]3(C)CC[C@H]4[C@H](C)CC[C@@H]1[C@@]24OO3 [Artesunate] ?
Result: 7.91 µM

Problem: What BMC10 any morphological effect or mortality value was documented for this molecule, CC(C)=CCC[C@](C)(O[C@@H]1O[C@H](CO[C@@H]2O[C@H](CO)[C@@H](O)[C@H](O)[C@H]2O)[C@@H](O)[C@H](O)[C@H]1O)[C@H]1CC[C@]2(C)[C@@H]1[C@H](O)C[C@@H]1[C@@]3(C)CC[C@H](O[C@@H]4O[C@H](CO)[C@@H](O)[C@H](O)[C@H]4O[C@@H]4O[C@H](CO)[C@@H](O)[C@H](O)[C@H]4O)C(C)(C)[C@@H]3CC[C@]12C [Ginsenoside Rb1] ?
Result: > 100 µM

Problem: What BMC10 any morphological effect or mortality value was documented for this molecule, CC(=O)O/N=C1/C(=C2\C(=O)Nc3cc(Br)ccc32)Nc2ccccc21 [BIO-Acetoxime] ?
Result: > 100 µM

More entries:
Problem: What BMC10 any morphological effect or mortality value was documented for this molecule, O=C(O[C@@H]1Cc2c(O)cc(O)cc2O[C@@H]1c1cc(O)c(O)c(O)c1)c1cc(O)c(O)c(O)c1 [(-)-Epigallocatechin gallate] ?
Result: > 100 µM

Problem: What BMC10 any morphological effect or mortality value was documented for this molecule, Cl.OC[C@H]1NC[C@H](O)[C@@H](O)[C@@H]1O [Duvoglustat] ?
Result: > 100 µM

###

Test system: Danio rerio embryo
protocolSummary: BMC10 any morphological effect or mortality at 120 hpf; higher = less toxic
This listing pairs compounds with measured BMC10 any morphological effect or mortality.
Could you give me the number in µM? Just the number is fine.

Worked cases, BMC10 any morphological effect or mortality given:
Problem: What BMC10 any morphological effect or mortality value was documented for this compound, O=C1c2cccc(O)c2C(=O)c2c(O)cc(CO)cc21 ?
Result: 9.08

Problem: What BMC10 any morphological effect or mortality value was documented for this compound, C/C=C(/C)C(=O)OC(C)(C)[C@@H]1Cc2c(ccc3ccc(=O)oc23)O1 ?
Result: 4.14

Problem: What BMC10 any morphological effect or mortality value was documented for this compound, CCCCCCC(=O)CCCCCC/C=C/C[C@@H](O)[C@H](O)[C@@](N)(CO)C(=O)O ?
Result: 1.03

Problem: What BMC10 any morphological effect or mortality value was documented for this compound, COc1c(O)cc2oc(-c3ccccc3)cc(=O)c2c1O ?
Result: 27.2

More entries:
Problem: What BMC10 any morphological effect or mortality value was documented for this compound, OC1=C2C(C(C=C([C@@](O)([H])C/C=C(C)\C)C2=O)=O)=C(O)C=C1 ?
Result: 1.08

Problem: What BMC10 any morphological effect or mortality value was documented for this compound, C/C=C(/C)C(=O)O[C@H]1c2cc(OC)c(OC)c(OC)c2-c2c(cc3c(c2OC)OCO3)C[C@H](C)[C@]1(C)O ?
Result: 65.9

Problem: What BMC10 any morphological effect or mortality value was documented for this compound, NC(=O)c1cccc(-c2cc(Nc3ccc(OC(F)(F)F)cc3)ncn2)c1 ?
Result: 3.7

Problem: What BMC10 any morphological effect or mortality value was documented for this compound, CC(=O)c1c(O)c(C)c(O)c2c1OC1=CC(=O)C(C(C)=O)C(=O)C12C (stereo not drawn) ?
Result: 1.01

###

Tested on: Danio rerio embryo
protocolSummary: LEL larval photomotor response dark phase 120 hpf
quantity: LEL larval photomotor response dark phase 120 hpf (µM)
Could you give me the number in µM? Just the number is fine.

Problem: What LEL larval photomotor response dark phase 120 hpf value was documented for this compound, CC[C@H](C)[C@H]1O[C@]2(CC[C@@H]1C)C[C@@H]1C[C@@H](C/C=C(\C)[C@@H](O[C@H]3C[C@H](OC)[C@@H](O[C@H]4C[C@H](OC)[C@@H](O)[C@H](C)O4)[C@H](C)O3)[C@@H](C)/C=C/C=C3\CO[C@@H]4[C@H](O)C(C)=C[C@@H](C(=O)O1)[C@]34O)O2 [Ivermectin B1a] ?
Result: 0.41

###

This listing pairs molecules with measured LEL larval photomotor response dark phase 120 hpf.
Test system: Danio rerio embryo
protocolSummary: LEL larval photomotor response dark phase 120 hpf

Problem: Danio rerio embryo / LEL larval photomotor response dark phase 120 hpf / O=C(OC[C@H]1O[C@@H](OC(=O)c2cc(O)c(O)c(OC(=O)c3cc(O)c(O)c(O)c3)c2)[C@H](OC(=O)c2cc(O)c(O)c(OC(=O)c3cc(O)c(O)c(O)c3)c2)[C@@H](OC(=O)c2cc(O)c(O)c(OC(=O)c3cc(O)c(O)c(O)c3)c2)[C@@H]1OC(=O)c1cc(O)c(O)c(OC(=O)c2cc(O)c(O)c(O)c2)c1)c1cc(O)c(O)c(OC(=O)c2cc(O)c(O)c(O)c2)c1 : value?
Result: > 100 µM

More entries:
Problem: Danio rerio embryo / LEL larval photomotor response dark phase 120 hpf / O[C@H]1CC[C@H](Nc2nc(-c3ccccc3)nc3[nH]ccc23)CC1 : value?
Result: > 100 µM

###

System: Danio rerio embryo
protocolSummary: BMC10 any morphological effect or mortality at 120 hpf; higher = less toxic
This listing pairs compounds with measured BMC10 any morphological effect or mortality.
Could you give me the number in µM? Just the number is fine.

Problem: What BMC10 any morphological effect or mortality value was documented for this compound, COC(=O)c1cc(OC)c2c(c1-c1c(CO)cc(OC)c3c1OCO3)OCO2 ?
Result: 4.07

More entries:
Problem: What BMC10 any morphological effect or mortality value was documented for this compound, O=c1cc(-c2cccc3c2Sc2ccccc2S3)oc(N2CCOCC2)c1 ?
Result: 5.74

###

Test system: Danio rerio embryo
protocolSummary: BMC10 any morphological effect or mortality at 120 hpf; higher = less toxic
quantity: BMC10 any morphological effect or mortality

Worked cases, BMC10 any morphological effect or mortality given:
Problem: Danio rerio embryo / BMC10 any morphological effect or mortality / CCN(CCO)CCCC(C)Nc1ccnc2cc(Cl)ccc12.O=S(=O)(O)O (centres undefined) [Hydroxychloroquine] : value?
Result: > 100 µM

Problem: Danio rerio embryo / BMC10 any morphological effect or mortality / COc1ccc(/C=C/C(=O)O)cc1O [Isoferulic acid] : value?
Result: > 100 µM

Problem: Danio rerio embryo / BMC10 any morphological effect or mortality / CC(N)C12C[C@H]3C[C@@H](C1)C[C@@H](C2)C3.Cl (some centres undefined) [Rimantadine] : value?
Result: > 100 µM

Problem: Danio rerio embryo / BMC10 any morphological effect or mortality / S=C(N(C1=CC=CC=C1)C(/C2=C\C3=CC=C(C4=CC=CC=C4[N+]([O-])=O)O3)=O)N(C5=CC=CC=C5)C2=O [UCF 101] : value?
Result: 3.23 µM

Problem: Danio rerio embryo / BMC10 any morphological effect or mortality / CCC(CC)COC(=O)[C@H](C)N[P@](=O)(OC[C@H]1O[C@@](C#N)(c2ccc3c(N)ncnn23)[C@H](O)[C@@H]1O)Oc1ccccc1 [Remdesivir] : value?
Result: > 100 µM

More entries:
Problem: Danio rerio embryo / BMC10 any morphological effect or mortality / Ic1cccc(/C=N/Nc2nc(N3CCOCC3)nc(N(c3ccccc3)c3ccccc3)n2)c1 [Vacuolin-1] : value?
Result: > 100 µM

Problem: Danio rerio embryo / BMC10 any morphological effect or mortality / CS(=O)(=O)O.Cc1c(O)cccc1C(=O)N[C@@H](CSc1ccccc1)[C@H](O)CN1C[C@H]2CCCC[C@H]2C[C@H]1C(=O)NC(C)(C)C [Nelfinavir] : value?
Result: > 100 µM

Problem: Danio rerio embryo / BMC10 any morphological effect or mortality / CCCCc1nc(Cl)c(C(=O)O)n1Cc1ccc(-c2ccccc2-c2nnn[nH]2)cc1 [Losartan carboxylic acid] : value?
Result: > 100 µM

Problem: Danio rerio embryo / BMC10 any morphological effect or mortality / Cc1ccc(NC(=O)C(=O)NC2CC(C)(C)NC(C)(C)C2)cc1 [YYA-021] : value?
Result: > 100 µM

Problem: Danio rerio embryo / BMC10 any morphological effect or mortality / CC(C)CN(C[C@@H](O)[C@H](Cc1ccccc1)NC(=O)O[C@H]1CCOC1)S(=O)(=O)c1ccc(N)cc1 [Amprenavir] : value?
Result: > 100 µM

Problem: Danio rerio embryo / BMC10 any morphological effect or mortality / O=C1O[C@@H]2[C@H]3OC(=O)c4cc(O)c(O)c(O)c4-c4c(cc(O)c(O)c4O)C(=O)OC[C@@H]2OC(OC(=O)c2cc(O)c(O)c(O)c2)[C@H]3OC(=O)c2cc(O)c(O)c3c2C2C1=CC(=O)C(O)(O3)C2(O)O (some centres undefined) [Geraniin] : value?
Result: > 100 µM

Problem: Danio rerio embryo / BMC10 any morphological effect or mortality / CC(C)(Sc1cc(C(C)(C)C)c(O)c(C(C)(C)C)c1)Sc1cc(C(C)(C)C)c(O)c(C(C)(C)C)c1 [Probucol] : value?
Result: > 100 µM

Problem: Danio rerio embryo / BMC10 any morphological effect or mortality / Cc1cc(/C=C/C#N)cc(C)c1Nc1ccnc(Nc2ccc(C#N)cc2)n1 [Rilpivirine] : value?
Result: > 100 µM

Problem: Danio rerio embryo / BMC10 any morphological effect or mortality / O=c1cc(-c2ccc(O)cc2)oc2cc(O)cc(O)c12 [Apigenin] : value?
Result: > 100 µM
